We begin with a simple list: items and their reported TGI.
- Tested on: NCI-H23 lung
- Measurement protocol: NCI tumour cell line growth inhibition, 48 h
Lab book: enter the figure in µM, no units written.

Cc1ccc(-c2ccc(Nc3c4ccccc4nc4ccccc34)cc2)cn1    88.7

Now for the compound whose TGI we want.
Please give the measured TGI for this compound: O=[N+]([O-])CC(SCc1ccccc1)c1ccc2c(c1)OCO2 (stereo not drawn)
17.5

* * *

We begin with a simple list: items and their reported TGI.
- Test system: OVCAR-5 ovarian
- Measurement protocol: NCI tumour cell line growth inhibition, 48 h
Lab book: enter the figure in µM, no units written.

COc1cc2c3c(n(CCN)c(=O)c2cc1OC)-c1cc2c(cc1C3=O)OCO2    3.74
COc1cc(NN=C(c2ccc(O)cc2)c2ccc(O)cc2)c([N+](=O)[O-])cc1[N+](=O)[O-]    40.1
CC(CN)[C@@H]1CC[C@]2(CO)CC[C@]3(C)[C@H](CC[C@@H]4[C@@]5(C)CCC(NCCO)C(C)(C)[C@@H]5CC[C@]43C)[C@@H]12 (some centres not stated)    5
Cc1ccc(-c2ccc(Nc3c4ccccc4nc4ccccc34)cc2)cn1    69.5
O=S(=O)(NC(=S)Nc1ccccc1)c1ccc(N2N=C3c4ccccc4CC3C2c2cccs2)cc1 (configuration not stated)    41.1

Now for the compound whose TGI we want.
Please give the measured TGI for this compound: c1ccc2nc3[nH]c4ccccc4c3cc2c1
20.4

Origin of the recorded values: PubChem BioAssay (NCI)
